Origin of the recorded values: the Human Domainome abundance scans (Beltran et al. 2025)

Provide the reported abundance fitness of each item.
B1: Gamma-crystallin C, residues 91 to 170; numbered along this chain, P07315 (parent)
chain: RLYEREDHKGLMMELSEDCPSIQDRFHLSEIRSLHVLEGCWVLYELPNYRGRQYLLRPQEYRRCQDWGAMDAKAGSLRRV

Variants of: B1
Test: abundance fitness (aPCA) (normalised: wild type 0, dead -1); higher = more abundant; growth selection in yeast, the domain comes from the species named
Settings: Homo sapiens
Just the number, please, no unit attached.

Query :: Please give the measured abundance fitness for this variant: R57F
Result :: -0.067

Query :: Requested field: abundance fitness. Item: R32V
Result :: -0.808

Query :: Fill blank: measured abundance fitness of the variant S76P is ____.
Result :: -0.776

Query :: Looking for the measured abundance fitness of R52V , can you help?
Result :: -0.137

Query :: GET /values?readout=abundance fitness&item= D71W
Result :: -0.281

Query :: Entry S33Q : reported abundance fitness = ?
Result :: -1.03

Query :: Please report the recorded abundance fitness for Q53V .
Result :: -0.747

Query :: Item under review: L55E . Reported abundance fitness?
Result :: -0.074

Query :: What abundance fitness value was documented for this variant, D24P ?
Result :: -0.951

Query :: Look up abundance fitness for this variant: C64Y
Result :: -0.116

Query :: Tell me the measured abundance fitness of L34A , please.
Result :: -0.064

Query :: Report abundance fitness for C64V please.
Result :: -0.596

Query :: Fill in: abundance fitness of Q65D is ___
Result :: -0.355

Query :: Consider the variant P58C and give its measured abundance fitness.
Result :: -0.334

Query :: Can you look up the measured abundance fitness of Y49L for me?
Result :: -0.906

Query :: Looking for the measured abundance fitness of C40S , can you help?
Result :: 0.041

Query :: Which value of abundance fitness has been reported for M12H in the records?
Result :: -0.483

Query :: Name the reported abundance fitness value associated with the variant M13D
Result :: -0.706

Query :: // lookup abundance fitness for M13S
Result :: -0.441

Query :: Fill blank: measured abundance fitness of the variant E30T is ____.
Result :: -0.186

Query :: abundance fitness for L37A ?
Result :: -0.553

Query :: Give the measured abundance fitness of Q65L .
Result :: -0.17
